Target of assay: Nurr1 receptor (Homo sapiens)
Sequence (P43354 whole entry): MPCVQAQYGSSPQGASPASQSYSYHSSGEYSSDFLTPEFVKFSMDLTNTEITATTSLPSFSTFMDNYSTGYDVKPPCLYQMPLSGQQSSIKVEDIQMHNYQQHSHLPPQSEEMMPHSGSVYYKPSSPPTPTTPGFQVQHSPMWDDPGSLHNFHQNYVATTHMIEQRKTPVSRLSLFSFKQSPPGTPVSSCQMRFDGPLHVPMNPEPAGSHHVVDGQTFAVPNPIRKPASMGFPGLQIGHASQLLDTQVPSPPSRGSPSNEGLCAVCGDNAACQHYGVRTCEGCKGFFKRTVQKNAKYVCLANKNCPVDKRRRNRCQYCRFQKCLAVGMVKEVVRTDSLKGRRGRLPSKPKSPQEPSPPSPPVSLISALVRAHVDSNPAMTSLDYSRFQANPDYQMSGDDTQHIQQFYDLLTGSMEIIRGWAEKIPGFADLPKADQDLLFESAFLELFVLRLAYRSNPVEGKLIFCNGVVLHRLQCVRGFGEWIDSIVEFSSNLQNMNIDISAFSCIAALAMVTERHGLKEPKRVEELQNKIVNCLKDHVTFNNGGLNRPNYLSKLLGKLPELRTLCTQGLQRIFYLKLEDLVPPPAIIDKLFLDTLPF
Test name: Transactivation of a Nurr1 responsive reporter gene in a midbrain dopaminergic cell line
Condition description: read-out: EC50 of increase of reporter gene activity
Assay readout: EC50 (nM)

[[record]]
compound = "CN(C)Cc1ccc(-c2cc3onc(-c4ccccc4)c3c(=O)[nH]2)cc1 [Example 11]"
u = "nM"
recorded_result = 70

[[record]]
compound = "COCCOCc1ccc(-c2cc3onc(-c4ccccc4)c3c(=O)n2C)cc1 [Example 7]"
u = "nM"
recorded_result = 40

